B1: NET1 (parent)
chain: IKRTIRVLDVNNQSFREQEEPSNK

- Variants of: B1
- experimental_protocol: protein stability index of a GFP-peptide fusion (GPS, HEK-293T) (PSI 1-6); higher = more stable;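 further: lentivirally expressed fusions sorted by FACS into six bins by GFP to DsRed ratio, PSI derived from sequencing read proportions per bin multiplied by bin number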
- condition_details: c terminus: a fixed tail appended
parameter: protein stability index
Enter a number only.

Please review the following examples before continuing.
mutation_key | assay_result
I5N | 4.08
S14F | 2.56
S22L | 2.64
N23P | 2.87
N23H | 2.28

stdin: Please give measured protein stability index of the following entry: `F15W`
stdout: 3.6

stdin: Please give measured protein stability index of the following entry: `I1T`
stdout: 4.49

stdin: Please give measured protein stability index of the following entry: `Q13F`
stdout: 2.72

stdin: Please give measured protein stability index of the following entry: `T4R`
stdout: 3.99

Data provenance: the supplement of paper PMC10567573
